Tested on: HOP-92 NSCLC
Assay: NCI tumour cell line growth inhibition, 48 h
Peptide text beside a SMILES is read from it. * marks the point of attachment. OSu = O=C1CCC(=O)N1O*; OBn = c1ccc(CO*)cc1; Bn = c1ccc(C*)cc1
Threshold check on TGI: at or above 7 µM gives Met, strictly below gives Not met.

[Q] Hi, just wondering whether `COc1ccc(-c2nn(-c3cccc(NC(=O)Nc4cccc(C(F)(F)F)c4)c3)cc2-c2ccncc2)cc1Cl` shows TGI of 7 µM or higher.
[A] Not met

[Q] Hi, just wondering whether CCOC(=O)C1=CN(C(=O)c2ccccc2)CCC1Cc1ccccc1 (stereo not given) shows TGI of 7 µM or higher.
[A] Met

[Q] Hi, just wondering whether CC(CN(C)C)C(=O)/C=C/c1ccc(Cl)c(Cl)c1 (stereo not given) shows TGI of 7 µM or higher.
[A] Not met

[Q] Hi, just wondering whether `OCCNc1nc2c(N3CCCC3)nc(N3CCNCC3)nc2nc1NCc1ccccc1` shows TGI of 7 µM or higher.
[A] Met

[Q] Hi, just wondering whether CC(C)CC(NC(=O)C(N)CCC(=O)OCc1ccccc1)C(=O)NC(COCc1ccccc1)C(=O)NC(Cc1ccccc1)C(=O)ON1C(=O)CCC1=O (stereo not given) (H-E(OBn)LS(Bn)F-OSu; configuration not given here) shows TGI of 7 µM or higher.
[A] Met

[Q] Hi, just wondering whether `O=c1cc2cc(O)[nH]c(=O)c2c(O)[nH]1` shows TGI of 7 µM or higher.
[A] Met

[Q] Hi, just wondering whether `CC(C)C[C@H](NC(=O)[C@H](CCc1ccccc1)NC(=O)c1ccc2ccccc2n1)B(O)O` shows TGI of 7 µM or higher.
[A] Not met

[Q] Hi, just wondering whether COc1cc(C2c3cc4c(cc3OC(N3CCOCC3)C2C)OCO4)cc(OC)c1OC(C)=O (stereo not given) shows TGI of 7 µM or higher.
[A] Met

[Q] Hi, just wondering whether `COc1cnnc2c(C)c(-c3ccccc3)nn12` shows TGI of 7 µM or higher.
[A] Met

----------
Test system: NCI-H522 lung
Experiment: NCI tumour cell line growth inhibition, 48 h
Reported Property: GI50

The value of GI50 recorded for `NCC(=O)CCC(=O)O` when tested on NCI-H522 lung reads > 100 µM

The value of GI50 recorded for CC12CCC(O)CC1CCC1C2CCC2(C)C(C3=CC(=O)OC3)CCC12 (stereo not drawn) when tested on NCI-H522 lung reads 0.686 µM

The value of GI50 recorded for `C1C[OH+]CC[OH+]CC[OH+]CC[OH+]CC[OH+]CC[OH+]1.[Cl-].[Ta+5]` when tested on NCI-H522 lung reads > 100 µM

----------
System: A498 renal
Assay: NCI tumour cell line growth inhibition, 48 h
Reported Property: TGI

The compound listed as `Nc1c(O)c(S(=O)(=O)O)c(O)c2c1C(=O)c1ccccc1C2=O` shows TGI equal to 7.53 µM

The compound listed as O=C1c2ccccc2C2(O)Oc3cccc(O)c3C12O (stereo not drawn) shows TGI equal to > 100 µM

The compound listed as `NCC(=O)CCC(=O)O` shows TGI equal to > 100 µM

----------
Test system: RXF 393 renal
Test: NCI tumour cell line growth inhibition, 48 h
For each record, write down the corresponding TGI.

The compound listed as NC(CNc1ccc(O)cc1)C(=O)O (centres undefined) shows TGI equal to > 100 µM

The compound listed as C#CC#CC#CC#CC#CC#CC#CC#CCC1OC[C@H](COC(=O)O[C@@H](C(=O)O[C@H]2C[C@@]3(O)[C@@H](OC(=O)c4ccccc4)[C@@H]4[C@]5(OC(C)=O)CO[C@@H]5C[C@H](O)[C@@]4(C)C(=O)[C@H](OC(C)=O)C(=C2C)C3(C)C)[C@@H](NC(=O)c2ccccc2)c2ccccc2)O1 (some centres undefined) shows TGI equal to > 15.3 µM

The compound listed as `COc1ccc(-c2c(C#N)c(N)nc3c2CCCc2ccc(F)cc2-3)cc1OC` shows TGI equal to > 82.9 µM

The compound listed as `NCC(=O)CCC(=O)O` shows TGI equal to > 100 µM

----------
For each record, write down the corresponding TGI.
Test system: NCI-H522 lung
Assay: NCI tumour cell line growth inhibition, 48 h

The molecule listed as `Cc1nc(N)nc(N)c1N1CCN(Cc2ccccc2)CC1` shows TGI equal to > 93.5 µM

The molecule listed as `COc1cc([C@@H]2c3cc4c(cc3[C@@H](Nc3ccc(NC(=O)c5cc(NC(=O)c6cc([N+](=O)[O-])cn6C)cn5C)cc3)[C@H]3COC(=O)[C@H]23)OCO4)cc(OC)c1O` shows TGI equal to > 100 µM

The molecule listed as `C/C(=N\NC(=O)N/N=C(\C)c1ccccn1)c1ccccn1` shows TGI equal to > 100 µM

The molecule listed as C=CCC(C)(C(=O)NCCC)C(=O)c1ccccc1O (configuration not stated) shows TGI equal to > 100 µM

The molecule listed as CC(C)(C)OC(=O)NCCNC(=O)CN(CC(=O)O)C1CCCCC1N(CC(=O)O)CC(=O)O (configuration not stated) shows TGI equal to > 100 µM

The molecule listed as `CCCCC#Cc1cccc(=O)o1` shows TGI equal to > 100 µM

The molecule listed as c1ccc2nn(C3CCCCO3)nc2c1 (configuration not stated) shows TGI equal to > 100 µM

The molecule listed as O=C1OC(C(O)C(O)C(O)CO)C(O)C1O (configuration not stated) shows TGI equal to > 100 µM

The molecule listed as C=C1CO[C@@H]2C[C@@H]1CCC1(C)OC1CC/C(C)=C/CC[C@@]2(C)O (some centres not stated) shows TGI equal to > 76.9 µM

The molecule listed as CN1N(c2ccccc2)C(=O)C2=NC=C(C#N)C(=N)C21C (configuration not stated) shows TGI equal to > 100 µM

The molecule listed as CCCN1C(=O)/C(=C(/O)C(=O)OCC)C(c2ccc(OC)c(OC)c2)C1=O (configuration not stated) shows TGI equal to > 100 µM

The molecule listed as `COc1ccc(-c2[nH]ncc2-c2cc(OC)c(OC)c(OC)c2)cc1` shows TGI equal to < 0.01 µM

The molecule listed as CC(C)(C)c1ccc(O)c(C(O)c2cccnc2)c1 (configuration not stated) shows TGI equal to > 100 µM

The molecule listed as `CCc1cc2c(oc3c4ccccc4ccc23)c(=O)[nH]1` shows TGI equal to > 10 µM

The molecule listed as `Cc1ccc(C2(c3ccc(C)c(O)c3C)CCN(C)CC2)c(C)c1O` shows TGI equal to > 100 µM

The molecule listed as `COc1cc2c3c(n(CCCNCCN4CCOCC4)c(=O)c2cc1OC)-c1cc2c(cc1C3=O)OCO2` shows TGI equal to > 100 µM

The molecule listed as `S=C1CSc2c(cnc3ccccc23)N1` shows TGI equal to > 100 µM

The molecule listed as `O=C1NC(=S)NC(=O)C1=Cc1ccc2ccccc2n1` shows TGI equal to > 100 µM

The molecule listed as CS(=O)(=O)CS(=O)CS(=O)CS(=O)CC(NC(=O)CCC(N)C(=O)O)C(=O)O (configuration not stated) shows TGI equal to > 100 µM

The molecule listed as `Nc1ccc(-c2nc3cc(F)ccc3s2)cc1` shows TGI equal to > 100 µM

The molecule listed as `Cc1[nH]c(=O)[nH]c(=O)c1C(=O)N(CCO)Cc1ccccc1` shows TGI equal to > 100 µM

The molecule listed as `O=c1c(S(=O)(=O)Oc2ccccc2)coc2cc(F)ccc12` shows TGI equal to > 100 µM

The molecule listed as CCOC(=O)C1=CN(C(=O)c2ccccc2)CCC1Cc1ccccc1 (configuration not stated) shows TGI equal to 40.5 µM

The molecule listed as `CC1=N/C(=C\c2cccc3ccccc23)C(=O)O1` shows TGI equal to > 100 µM

The molecule listed as `CC1(C)CC[C@]2(C(=O)O)CC[C@]3(C)[C@H](CC[C@@H]4[C@@]5(C)CCC(=O)C(C)(C)[C@@H]5CC[C@]43C)[C@H]2[C@H]1OC(=O)C(F)(F)F` shows TGI equal to 29.1 µM

The molecule listed as CCC(C)CC(CC)NCCN1CCN(C(CC)CC(C)CC)C1=S (configuration not stated) shows TGI equal to 3.24 µM

The molecule listed as `c1ccc2c(c1)ccc1c3ccccc3ccc21` shows TGI equal to > 50 µM

----------
Test system: HCC-2998 colon
Assay: NCI tumour cell line growth inhibition, 48 h
For each record, write down the corresponding GI50.

The molecule listed as `CC1(C)CC[C@]2(C(=O)O)CC[C@]3(C)[C@H](CC[C@@H]4[C@@]5(C)CCC(=O)C(C)(C)[C@@H]5CC[C@]43C)[C@H]2[C@H]1OC(=O)C(F)(F)F` shows GI50 equal to 10.7 µM

The molecule listed as `O=C(Nc1ccccc1F)c1ccc(NC2=C(Cl)C(=O)N(Cc3ccccc3)C2=O)cc1` shows GI50 equal to 15.7 µM

The molecule listed as `C=C1C(=O)O[C@H]2[C@H]1CC/C(COC(=O)C(=O)c1cn(C)c3ccc(OC)cc13)=C\CC[C@@]1(C)O[C@@H]21` shows GI50 equal to 5.14 µM
